Where do these numbers come from? They come from patent US20240238448A1.

Assay: Pharmacokinetics of CEM87 in mice
Details: mouse, in vivo, single 3 mg/kg IV, read-out: exposure (AUC0-24)
endpoint label: AUC(0-t) (ng·h/mL)
Kindly provide the numeric value in ng·h/mL only, without the unit symbol.

Query `COc1ccc2c(c1)C(c1ccc(Cl)cc1)=N[C@@H](CC(=O)NCc1cn(CCOCCOCCOCCNC(=O)CCSCCC[C@@H]3/C=C(\C)C[C@H](C)C[C@H](OC)[C@H]4O[C@@](O)(C(=O)C(=O)N5CCCC[C@H]5C(=O)O[C@H](/C(C)=C/[C@@H]5CC[C@@H](O)[C@H](OC)C5)[C@H](C)[C@@H](O)CC3=O)[C@H](C)C[C@@H]4OC)nn1)c1nnc(C)n1-2` yields AUC(0-t) of 27500
